Biological target: T1, chimeric (mouse and human) 4-1BB (c4-1BB) on transfected CHO cells (chimeric (mouse and human))
T1 construct: also called chi4-1BB; CHO-c4-1BB
Test: flow cytometry on transfected CHO cells;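 further: antibodies tested at 1 µg/ml on CHO cells for 30 min at 4 °C, binding detected with FITC- or PE-labeled anti-mouse IgG Fc secondary by flow cytometry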
endpoint: binding result

INSERT INTO results (binder, measured) VALUES
  ('69-3C2 (antibody, V domains shown, mouse antibody purified from ascites) VH: DVQLVESGGGLVQPGGSRKLSCAASGFSFSSFGMHWMRQAPEKGLEWVAYISSGSSAIYYADTVKGRFTISRDNPKNTLFLQMTSLRSEDTAMYYCARDWVDYWGQGTTLTVSS VL: DIQMTQSPASLSVSVGETVTITCRASENIYSNLVWYQQKQGKSPQLLVYTATKLTNGVPSRFSGSGSGTQYSLKINSLQSEDFGTYYCQHFWDTPYTFGGGTKLEMK', 'binds'),
  ('45-8E2 (antibody, V domains shown, mouse antibody purified from ascites) VH: EVKLLESGGGLVQPGGSLKLSCAASGFDFSRYWMSWVRQAPGKGLEWIGEIHPDSSAINYTPSLKDKFIISRDNAKNTLYLQMSKVRSEDTALYYCARSYYGRVFDYWGQGTTLTVSS VL: DIVMTQSPATLSVTPGDRVSLSCRASQSISDYLHWYQQKSHESPRLLIKYASQSISGIPPRFSGSGSGSDFTLSINSVEPEDVGMYYCQDGHSFPPTFGAGTKLELK', 'binds'),
  ('45-8F1 (antibody, V domains shown, mouse antibody purified from ascites) VH: EVQLQQSGTVLARPGASVKMSCKASGYSFTSYWMHWVKQRPGQGLEWIGVIYPGNSDTSYNQKFKGKAKLTAVTSASTAYMDLSSLTNEDSAVYYCTRGITTAPDYWGQGTTLTVSS VL: NIVMTQSPKSMSMSVGERVTLSCKASENVGIHVSWYQQKPEQSPKLLIYGASSGYNGVPDRFTGSGSATDFTLTISSVQPEDLADYHCGQTYSYPFTFGSGTKLEIK', 'binds');
